- Tested on: NCI-H460 lung
- methodNotes: NCI-60 one-dose screen, 48 h
- recordedConditions: 10 µM unless noted
This is part of a sample that, as a whole, favours compounds with a hit. Of some 83,000 tested, about 20% had one in any assay. Calls of active or inactive are those of the source. The calls were made as follows: active = growth percent below 10; inactive = the rest.
Outcomes: active, inactive

| molecule | label |
| --- | --- |
| O=C1NN(C(=O)c2ccc(Cl)cc2)C(c2ccccc2)=N/C1=C\c1ccc(F)cc1 | inactive |
| CCCCCCN1CSC(=S)N(CCCCCC)C1 | inactive |
| O=C(CCl)N(C1CCCCC1)C1CCCCC1 | inactive |
| COC(=O)C(Sc1ccc(Cl)cc1)C1SC(=S)N(Cc2ccccc2)C1=O (configuration not stated) | inactive |
| O=[N+]([O-])c1ccc(C(c2ccccc2)c2ccccc2)cc1 | inactive |
| N=c1ccc2nc3ccc(N)cc3sc-2c1 | inactive |
| COc1ccc(C2C=C(c3ccc(N)cc3)N=C3SC=CN32)cc1OC (configuration not stated) | inactive |
| Cc1cc(N/N=C/c2nc(-c3ccccc3)oc2C)c2cc(Br)ccc2n1 | inactive |
| O=S(=O)(c1ccc(OCCO)cc1)c1ccc(OCCO)cc1 | inactive |
| Cc1ccc(/C=C2\CN(C(=O)CCN3CCC(=NO)CC3)C/C(=C\c3ccc(C)cc3)C2=O)cc1 | active |
| CN(C)CCN1C(=O)c2ccc3c4c(ccc(c24)C1=O)C(=O)N(CCN=C=S)C3=O | active |
| O=C(O)/C=C/C(=O)c1ccc(Cl)cc1 | inactive |
| c1ccc(-c2nnc(-c3ccccn3)s2)nc1 | inactive |
| Cc1nc2ncccc2nc1Nc1ccc(S(=O)(=O)Nc2cncs2)cc1 | inactive |
| Cc1ccc(S(=O)(=O)NCCNc2nccc(-c3c(-c4ccc(O)cc4)nc4sccn34)n2)cc1 | inactive |
| CCN(CC)c1ccc(CNc2ccnc3ccccc23)cc1 | inactive |
| COc1cc2c(cc1O)CCN1C[C@@H](CC(C)C)[C@@H](O)C[C@@H]21 | inactive |
| CC(C)(C)n1cc(-c2ccnc(NCCCNS(=O)(=O)c3ccc(C(F)(F)F)cc3)c2)c(-c2cccc(O)c2)n1 | active |
| COc1ccc(/C(C#N)=C/c2cc(OC)c(OC)c(OC)c2)cc1 | inactive |
| CCOC(=O)/C(C#N)=C1/C(=O)Nc2ccccc21 | inactive |
| CN(C)CCCC(C#N)c1ccccc1 (configuration not stated) | inactive |
| CCOC(=O)c1ccc2c(c1)nc(-c1ccc(OCc3ccccc3)c(OC)c1)n2-c1cc(C(C)(C)C)[nH]n1 | inactive |

###

- Test system: BT-549 breast
- methodNotes: NCI-60 one-dose screen, 48 h (100 = growth as untreated, 0 = no growth, -100 = all killed)
- recordedConditions: 10 µM unless noted
The panel holds about 83,000 compounds, 20% with a hit somewhere; the sample as a whole holds those more often.
Classification field: enter yes (1) for growth values not below 90%, no (0) for values below it.

| compound | label |
| --- | --- |
| C=C[C@@H]1C[C@@H]2Cc3cc(Cl)ccc3N1O2 | yes (1) |
| O=S(=O)(CC(O)(c1ccccc1)c1ccccc1)CC(O)(c1ccccc1)c1ccccc1 | yes (1) |
| COc1cc(-c2nc(-c3nc4ccc(Cl)cc4[nH]3)cc3c2[nH]c2ccccc23)cc(OC)c1OC | no (0) |
| COc1ccc(-c2nc3sc(-c4cc(OC)c(OC)c(OC)c4)nn3c2/C=C2/C(=O)Nc3ccc(F)cc32)cc1 | no (0) |
| CCCCCCCCCCCCCCCCCCNC(=O)[C@H]1CSC(c2ccc(OC)cc2O)N1 (stereo not given in full) | no (0) |
| N=C(N)c1ccc(-c2ccc(-c3ccc4ccccc4c3)s2)cc1 | yes (1) |
| O=S1(=O)CCC(N(/N=C/c2ccco2)c2ccccc2)C1 (stereo not given) | yes (1) |
| C=C[C@@H]1C[C@@H]2Cc3c(C)cc(C)cc3N1O2 | yes (1) |
| O=[N+]([O-])c1cccc(-c2nc3sccn3c2-c2ccnc(NCCCNS(=O)(=O)c3ccc(Cl)cc3)n2)c1 | no (0) |
| COc1ccc(-c2c(N)n[nH]c2-c2cc3c(c(OC)c2OC)OCO3)cc1 | yes (1) |
| COc1ccc(C2=Nn3c(nnc3-n3nc(C)cc3C)SC2)cc1 | no (0) |
| Cc1ccc(S(=O)(=O)C2=C3C(=C(c4ccccc4)c4ccccc43)CN(S(=O)(=O)c3ccc(C)cc3)C2)cc1 | no (0) |
| Cc1nc2cncc(C#Cc3cncc(C(=O)Nc4ccc(CN5CCN(C)CC5)c(C(F)(F)F)c4)c3)c2nc1C | no (0) |
| COC1=C(OC)C(=O)C(CCCCCCCCCC[P+](c2ccccc2)(c2ccccc2)c2ccccc2)=C(C)C1=O | no (0) |
| CCCCC(CC)OC(=O)C(Br)CC (stereo not given) | yes (1) |
| CCOC(=O)C1C(=O)C=C(c2ccc(OC)cc2)CC1c1sc(N(C)Cc2ccccc2)nc1Cl (stereo not given) | yes (1) |
| COc1ccc(C2CC(c3ccc(OC)cc3OC)=NN2c2ccc(S(N)(=O)=O)cc2)cc1 (stereo not given) | no (0) |

###

- System: HS 578T breast
- methodNotes: NCI-60 one-dose screen, 48 h
- recordedConditions: 10 µM unless noted
Compounds without any hit were thinned out: in the full panel of roughly 83,000, 20% have a hit. Activity calls are given as the source filed them. The calls were made as follows: active = growth percent below 10; inactive = the rest.
Outcomes: active, inactive

| molecule | label |
| --- | --- |
| C=C[C@@H]1C[C@H](O)Cc2cc(F)ccc2N1 | inactive |
| COc1cc(-c2nn(-c3cccc(NC(=O)c4cccc(C(F)(F)F)c4)c3)cc2-c2ccncc2)ccc1Cl | active |
| CCNc1nc(S(=O)(=O)CC)nc2ccccc12 | inactive |
| COc1ccc(C2C=C(c3ccc(Cl)cc3)N=C3SC=C(C)N32)c(Br)c1 (stereo not drawn) | inactive |
| C=C1CCC[C@]2(C)CCC[C@H](C)[C@@H](OC(C)=O)[C@@H]3OC(=O)C(=C)[C@@H]3C[C@H]1O2 | inactive |
| CN1CCN(CCCOc2ccc3nc(Nc4ccc(Cl)c(C(F)(F)F)c4)ccc3c2)CC1 | inactive |
| Fc1ccc(Nc2nc(NCCNc3ccnc4cc(Cl)ccc34)nc(N3CCOCC3)n2)cc1 | inactive |
| COc1ccc(-c2cnnn2-c2nonc2-n2cccc2)cc1OC | inactive |
| COc1ccc(Nc2[nH]n3c(=O)cc(-c4ccccc4)nc3c2C(=O)Nc2ccc(C)cc2)c(OC)c1 | inactive |
| S=C(S)NCCc1c[nH]c2ccccc12 | inactive |
| Cc1nc2ncccc2nc1Nc1ccc(S(=O)(=O)Nc2ccccn2)cc1 | inactive |
| CC1(C)C(=O)/C(=C\c2ccc(C(F)(F)F)cc2)C[C@]2(C)[C@H]3CC[C@@H]4[C@H]5[C@H](C(=O)/C=C/c6ccc(C(F)(F)F)cc6)CC[C@]5(CO)CC[C@@]4(C)[C@]3(C)CC[C@@H]12 | inactive |
| Cc1ccc2ccccc2c1C[n+]1ccccc1 | inactive |
| Clc1cc(Cl)c2nc(-c3ccc(-c4ccc(/C=N/NC5=NCCN5)cc4)s3)cn2c1 | inactive |
| COc1cc(-c2nc(-c3nc4ccc(Cl)cc4[nH]3)cc3c2[nH]c2ccccc23)cc(OC)c1OC | inactive |
| O=C(CN1CCN(c2cc3c(cc2F)c(=O)c(C(=O)N/N=C/c2ccccc2O)cn3C2CC2)CC1)N/N=C\c1ccccc1O | inactive |
| CCN1CCN(CC(=O)N2c3cccc4cccc(c34)N(C(=O)CN3CCN(CC)CC3)C2c2cn(-c3ccccc3)nc2-c2cccc([N+](=O)[O-])c2)CC1 | inactive |
| CCN1CCN(c2nc(NNC(=O)c3ccccc3)nc(N3CCN(C(c4ccccc4)c4ccccc4)CC3)n2)CC1 | inactive |

###

- System: T-47D breast
- methodNotes: NCI-60 one-dose screen, 48 h (100 = growth as untreated, 0 = no growth, -100 = all killed)
- recordedConditions: 10 µM unless noted
This is part of a sample that, as a whole, favours compounds with a hit. Of some 83,000 tested, about 20% had one in any assay.
Please use Fulfilled whenever growth is not below 70%, and Not fulfilled whenever it is.

| compound | targetOfAssay | label |
| --- | --- | --- |
| COc1ccc(-c2nc(N3CCCC3=O)sc2Br)cc1OC | T-47D breast | Fulfilled |
| Cc1ccc(S(=O)(=O)n2cc(C(=O)C(=O)N3CCOCC3)c3ccccc32)cc1 | T-47D breast | Fulfilled |
| CNC(=S)NNC(=O)C1CC1 | T-47D breast | Fulfilled |
| O=C(Nc1cccc(-n2cc(-c3ccncc3)c(-c3ccc(Cl)c(O)c3)n2)c1)c1ccccc1 | T-47D breast | Fulfilled |
| S=C(S)NCCc1c[nH]c2ccccc12 | T-47D breast | Fulfilled |
| O=C(NCc1cn(Cc2cccc(Oc3ccccc3)c2)nn1)c1cccnc1Nc1ccc(F)cc1 | T-47D breast | Fulfilled |
| CN(C)CCCN(c1nc(C(Cl)(Cl)Cl)ns1)c1nc(C(Cl)(Cl)Cl)ns1 | T-47D breast | Not fulfilled |
| C/C(=N/NC(=S)Nc1ccccc1)c1nc2ccc(Cl)cc2[nH]1 | T-47D breast | Not fulfilled |
| CC(C)(C)OC(=O)NC(CSCc1ccccc1)C(=O)ON1C(=O)CCC1=O (centres undefined) | T-47D breast | Fulfilled |

The reported measurements were obtained from PubChem BioAssay (NCI).
